pIC50: −log10 of the molar value.
Observed pIC50, system Human PI3Kα (Homo sapiens).
Reported Metric: pIC50

Chemical Smiles: O=C(CNC1CCCC1)N[C@H]1CC[C@H](Oc2cc(-n3c(C(F)F)nc4ccccc43)nc(N3CCOCC3)n2)CC1
Subject Of Test: Human PI3Kα (Homo sapiens)
Sequence (P42336 whole entry): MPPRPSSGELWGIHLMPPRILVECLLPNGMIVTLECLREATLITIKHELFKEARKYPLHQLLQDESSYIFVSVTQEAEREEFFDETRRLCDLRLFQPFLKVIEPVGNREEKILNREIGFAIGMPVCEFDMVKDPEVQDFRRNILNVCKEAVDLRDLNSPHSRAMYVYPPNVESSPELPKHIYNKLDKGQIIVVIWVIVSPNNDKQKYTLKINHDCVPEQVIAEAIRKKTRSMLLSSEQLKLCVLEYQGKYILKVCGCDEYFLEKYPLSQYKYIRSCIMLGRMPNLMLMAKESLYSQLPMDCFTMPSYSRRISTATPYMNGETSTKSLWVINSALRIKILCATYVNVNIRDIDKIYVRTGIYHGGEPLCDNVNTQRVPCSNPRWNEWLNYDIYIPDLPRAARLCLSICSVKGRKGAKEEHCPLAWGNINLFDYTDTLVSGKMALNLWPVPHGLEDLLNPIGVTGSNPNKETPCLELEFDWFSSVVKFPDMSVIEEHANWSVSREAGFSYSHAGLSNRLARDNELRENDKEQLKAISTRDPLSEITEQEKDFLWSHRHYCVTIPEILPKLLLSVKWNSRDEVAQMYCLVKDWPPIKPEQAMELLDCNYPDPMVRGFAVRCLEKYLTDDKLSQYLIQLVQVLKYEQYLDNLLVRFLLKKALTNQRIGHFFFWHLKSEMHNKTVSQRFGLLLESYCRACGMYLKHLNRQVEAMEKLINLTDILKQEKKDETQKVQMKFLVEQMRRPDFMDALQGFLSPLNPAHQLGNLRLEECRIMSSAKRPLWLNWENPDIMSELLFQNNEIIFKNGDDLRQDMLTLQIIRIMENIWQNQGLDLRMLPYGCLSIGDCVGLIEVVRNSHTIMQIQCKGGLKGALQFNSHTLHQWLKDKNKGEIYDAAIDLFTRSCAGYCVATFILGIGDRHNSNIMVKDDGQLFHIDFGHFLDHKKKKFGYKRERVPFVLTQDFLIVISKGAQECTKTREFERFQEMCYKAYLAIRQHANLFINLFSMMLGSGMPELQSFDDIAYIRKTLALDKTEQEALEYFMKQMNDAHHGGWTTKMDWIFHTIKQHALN
Sequence (P27986 whole entry partner): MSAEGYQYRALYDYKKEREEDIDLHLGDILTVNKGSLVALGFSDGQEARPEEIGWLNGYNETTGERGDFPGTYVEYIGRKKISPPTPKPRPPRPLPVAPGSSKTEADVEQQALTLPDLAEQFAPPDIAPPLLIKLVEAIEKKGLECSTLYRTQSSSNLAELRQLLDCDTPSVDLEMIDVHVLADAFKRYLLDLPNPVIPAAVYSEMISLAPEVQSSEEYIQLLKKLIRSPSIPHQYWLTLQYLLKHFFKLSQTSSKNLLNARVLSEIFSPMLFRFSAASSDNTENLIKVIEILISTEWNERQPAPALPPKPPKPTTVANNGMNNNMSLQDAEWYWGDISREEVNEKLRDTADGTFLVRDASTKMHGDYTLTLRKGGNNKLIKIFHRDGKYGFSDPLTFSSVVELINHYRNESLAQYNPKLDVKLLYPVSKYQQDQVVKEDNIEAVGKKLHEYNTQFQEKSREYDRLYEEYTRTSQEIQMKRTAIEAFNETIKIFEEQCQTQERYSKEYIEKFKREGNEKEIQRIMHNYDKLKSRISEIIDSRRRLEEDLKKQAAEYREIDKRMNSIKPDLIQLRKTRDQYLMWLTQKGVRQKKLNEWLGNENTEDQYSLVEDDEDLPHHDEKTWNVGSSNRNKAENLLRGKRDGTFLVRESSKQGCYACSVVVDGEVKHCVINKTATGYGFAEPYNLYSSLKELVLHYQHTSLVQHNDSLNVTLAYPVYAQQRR
Numeric Readout: 5.18

Chemical Smiles: CCOC(=O)N1CCN(c2ccc(CNc3nc(N4CCOCC4)cc(-n4c(C(F)F)nc5ccccc54)n3)cc2)CC1
Subject Of Test: Human PI3Kα (Homo sapiens)
Numeric Readout: 5.17

Chemical Smiles: O=C(CN1CCCCC1)N1CC[C@H](Nc2cc(-n3c(C(F)F)nc4ccccc43)nc(N3CCOCC3)n2)C1
Subject Of Test: Human PI3Kα (Homo sapiens)
Numeric Readout: 5.85

Chemical Smiles: C[C@@H]1COCCN1c1cc(-n2c(C(F)F)nc3ccccc32)nc(NCC2CCN(C3CCOCC3)CC2)n1
Subject Of Test: Human PI3Kα (Homo sapiens)
Numeric Readout: 5.72
